test: In vivo pharmacokinetic study
Set-up: species or system SD rats
experimental_conditions: SD (Sprague-Dawley), rat, plasma, iv; male SD rats, i.v. 5 mg/kg
Description: The SD rats were fasted overnight and dosed i.v. at a dose of 5 mg/kg in a solution of DMSO/PEG 400/water (5%/24%/71%). […] The supernatant was diluted and analyzed by LC-MS/MS. […] The quantification of drug concentration in plasma samples was performed using the internal standard method, and the obtained pharmacokinetic parameters were calculated using Phoenix WinNonlin software.
result_type: Tmax

>  <compound>
CC[C@H]1OC(=O)[C@H](C)[C@@H](OC(=O)NCCCCCCC#Cc2ccc3c(=O)c(C(=O)O)cn(C)c3c2)[C@H](C)[C@@H](O[C@@H]2O[C@H](C)C[C@H](N(C)C)[C@H]2O)[C@](C)(OC)C[C@@H](C)C(=O)[C@H](C)[C@H]2NC(=O)O[C@@]21C

>  <Tmax>
4.8 min

$$$$

--- query ---
// recorded Tmax for CCOC(=O)c1cn(C)c2cc(C#CCCCCCCNC(=O)O[C@H]3[C@H](C)[C@@H](O[C@@H]4O[C@H](C)C[C@H](N(C)C)[C@H]4O)[C@](C)(OC)C[C@@H](C)C(=O)[C@H](C)[C@H]4NC(=O)O[C@]4(C)[C@@H](CC)OC(=O)[C@@H]3C)ccc2c1=O [88h] : 4.8 min

Data provenance: paper PMC11239830
